- System: Calf thymus DNA
- TEST PROTOCOL: Displacement of Ethidium bromide from calf thymus DNA/EtBr complex assessed as decrease in fluorescent intensity by fluorescence based EtBr-displacement assay
- Format: nucleic-acid assay
- MEASUREMENT SETUP: Bos taurus
Activity calls are given as the source filed them. The rule behind the calls is not given here.

| SMILES | Activity |
| --- | --- |
| OCCN1CCN(c2nc(Nc3ccc(-c4nc5ccccc5[nH]4)cc3)c3cn[nH]c3n2)CC1 | Active |
| c1ccc(CNc2nc(Nc3ccc(-c4nc5ccccc5[nH]4)cc3)c3cn[nH]c3n2)cc1 | Active |
| Fc1ccc(Nc2nc(Nc3ccc(-c4nc5ccccc5[nH]4)cc3)c3cn[nH]c3n2)cc1 | Active |
| c1ccc2[nH]c(-c3ccc(Nc4nc(N5CCCC5)nc5[nH]ncc45)cc3)nc2c1 | Active |
